Target: H1047R PIK3CA enzyme (Homo sapiens, UniProt P42336, H1047R)
Sequence (P42336 whole entry H1047R): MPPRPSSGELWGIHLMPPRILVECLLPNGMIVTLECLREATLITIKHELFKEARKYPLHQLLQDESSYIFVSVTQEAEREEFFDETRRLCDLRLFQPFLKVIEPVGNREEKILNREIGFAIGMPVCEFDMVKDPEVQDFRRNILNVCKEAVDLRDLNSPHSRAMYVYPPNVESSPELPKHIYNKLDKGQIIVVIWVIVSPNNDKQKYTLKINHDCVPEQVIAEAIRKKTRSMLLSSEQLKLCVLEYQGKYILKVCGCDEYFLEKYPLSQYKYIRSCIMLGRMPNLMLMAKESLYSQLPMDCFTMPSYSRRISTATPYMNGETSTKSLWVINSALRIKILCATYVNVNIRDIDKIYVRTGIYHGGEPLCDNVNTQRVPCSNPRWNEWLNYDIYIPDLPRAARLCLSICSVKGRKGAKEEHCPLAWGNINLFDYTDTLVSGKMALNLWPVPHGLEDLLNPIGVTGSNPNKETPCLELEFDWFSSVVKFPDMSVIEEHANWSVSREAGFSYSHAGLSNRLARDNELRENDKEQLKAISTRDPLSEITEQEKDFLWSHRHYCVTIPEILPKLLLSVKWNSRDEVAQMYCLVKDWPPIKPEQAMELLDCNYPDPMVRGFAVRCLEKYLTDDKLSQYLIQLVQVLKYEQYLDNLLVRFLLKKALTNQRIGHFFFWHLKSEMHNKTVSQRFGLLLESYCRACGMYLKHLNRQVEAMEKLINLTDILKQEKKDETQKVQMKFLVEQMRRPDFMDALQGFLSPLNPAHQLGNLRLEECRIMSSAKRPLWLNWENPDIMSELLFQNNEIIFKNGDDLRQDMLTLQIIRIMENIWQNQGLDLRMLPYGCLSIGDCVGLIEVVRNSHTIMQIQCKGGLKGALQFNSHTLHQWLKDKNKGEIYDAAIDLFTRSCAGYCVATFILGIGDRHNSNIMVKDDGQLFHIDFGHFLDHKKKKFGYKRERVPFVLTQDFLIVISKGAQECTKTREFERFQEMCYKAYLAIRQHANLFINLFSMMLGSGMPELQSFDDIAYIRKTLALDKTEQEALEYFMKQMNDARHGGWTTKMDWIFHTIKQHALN
Sequence (P27986 whole entry partner): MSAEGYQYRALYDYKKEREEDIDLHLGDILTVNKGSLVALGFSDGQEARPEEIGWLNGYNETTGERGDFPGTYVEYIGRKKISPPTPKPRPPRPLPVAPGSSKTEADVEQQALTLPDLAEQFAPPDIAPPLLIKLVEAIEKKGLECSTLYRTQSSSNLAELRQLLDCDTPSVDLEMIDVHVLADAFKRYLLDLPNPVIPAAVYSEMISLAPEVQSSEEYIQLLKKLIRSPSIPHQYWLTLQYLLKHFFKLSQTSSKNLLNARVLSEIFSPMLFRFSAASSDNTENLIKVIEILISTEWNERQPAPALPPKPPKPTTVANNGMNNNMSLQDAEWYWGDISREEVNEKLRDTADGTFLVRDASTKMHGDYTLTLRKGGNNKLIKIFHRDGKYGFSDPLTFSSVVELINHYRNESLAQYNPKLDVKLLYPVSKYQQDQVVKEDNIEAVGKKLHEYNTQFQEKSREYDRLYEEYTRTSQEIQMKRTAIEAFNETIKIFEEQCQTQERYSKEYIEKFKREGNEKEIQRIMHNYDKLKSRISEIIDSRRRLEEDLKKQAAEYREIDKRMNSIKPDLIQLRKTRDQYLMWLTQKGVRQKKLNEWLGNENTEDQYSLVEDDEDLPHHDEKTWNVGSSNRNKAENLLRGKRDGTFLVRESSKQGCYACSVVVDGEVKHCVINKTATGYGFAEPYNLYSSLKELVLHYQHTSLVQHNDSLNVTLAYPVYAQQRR
Test: ADP-Glo Biochemical PIK3CA Kinase Assay
pIC50: −log10 of the molar value.
attribute_measured: pIC50

Quick request: pIC50 for each listed item, please.
1. O=C1NC(c2cc(F)ccc2Cl)c2c(NC(=O)N3CCSC(C(F)(F)F)C3)cccc21 (centres unmarked) [Compound I-2340]
2. Cn1cncc1C#Cc1cc(NC(=O)c2cc(F)cc(C(F)(F)F)c2)c2c(c1)C(=O)NC2c1cc(F)ccc1Cl (centres unmarked) [Compound I-1247]
3. Cn1c(Cl)cc(C(=O)Nc2cc(Br)cc3c2[C@@H](c2cc(F)ccc2Cl)NC3=O)cc1=O [Compound I-2096]
4. N#Cc1cccc(C2NC(=O)c3cccc(NC(=O)c4cc(F)cc(C(F)(F)F)c4)c32)c1 (centres unmarked) [Compound I-659]
5. N#C[C@H]1C[C@H](Oc2cc(NC(=O)c3cc(F)cc(C(F)(F)F)c3)c3c(c2)C(=O)N[C@@H]3c2cc(F)ccc2Cl)C1 (stereo in doubt) [Compound I-1304]
6. O=C(Nc1cc(Br)cc2c1[C@H](c1cc(F)ccc1Cl)NC2=O)N[C@]1(CC(F)(F)F)CCCOC1 (racemic) [Compound I-1949]
7. O=C1NC(c2cc(F)ccc2Cl)c2c(NC(=O)c3cncc4ccccc34)cc(Br)cc21 (centres unmarked) [Compound I-673]

Outgoing:
["4.00 to 5.00", "≥ 7.00", "4.00 to 5.00", "4.00 to 5.00", "5.00 to 6.00", "4.00 to 5.00", "5.00 to 6.00"]

---

Biological target: H1047R PIK3CA enzyme (Homo sapiens, UniProt P42336, H1047R)
Test: ADP-Glo Biochemical PIK3CA Kinase Assay
pIC50: −log10 of the molar value.
attribute_measured: pIC50

N#CCc1cc(NC(=O)N2C[C@@](O)(C(F)(F)F)c3cc(F)ccc32)c2c(c1)C(=O)N[C@@H]2c1cc(F)ccc1Cl (single isomer, unassigned)	6.00 to 6.30
O=C1NC(c2cc(F)ccc2Cl)c2c(NC(=O)N3c4ccccc4C(O)C34CC4)cccc21 (mixture of isomers)	4.00 to 5.00

# lookup: O=C(Nc1cc(-c2ccc3ncnn3c2)cc2c1[C@H](c1cc(F)ccc1Cl)NC2=O)c1cc(F)cc(OC(F)F)c1 (stereo in doubt) on H1047R PIK3CA enzyme (Homo sapiens, UniProt P42336, H1047R), pIC50 = 6.30 to 7.00

---

Target: H1047R PIK3CA enzyme (Homo sapiens, UniProt P42336, H1047R)
Test: ADP-Glo Biochemical PIK3CA Kinase Assay
pIC50: −log10 of the molar value.
Kindly supply the reported pIC50 values for the records listed here.

Look over these answered cases.
CS(=O)(=O)n1cc(-c2cc(NC(=O)c3cc(F)cc(C(F)(F)F)c3)c3c(c2)C(=O)N[C@@H]3c2cc(F)ccc2Cl)cn1 [Compound I-1995]	6.00 to 6.30
CC(c1ccccc1O)N(C)C(=O)Nc1cc(Br)cc2c1C(c1cc(F)ccc1Cl)NC2=O (stereo not drawn) [Compound I-1459]	4.00 to 5.00
CC1(Cc2cc(NC(=O)c3cc(F)cc(C(F)(F)F)c3)c3c(c2)C(=O)NC3c2cc(F)ccc2Cl)COC1 (stereo not drawn) [Compound I-710]	≥ 7.00
COc1c(F)cccc1-c1cc(NC(=O)c2cc(F)cc(C(F)(F)F)c2)c2c(c1)C(=O)NC2c1cc(F)ccc1Cl (stereo not drawn) [Compound I-1156]	≥ 7.00
Cc1ncc(C#N)c(-c2cc(NC(=O)c3cc(F)cc(C(F)(F)F)c3)c3c(c2)C(=O)NC3c2cc(F)ccc2Cl)n1 (stereo not drawn) [Compound I-1369]	≥ 7.00

The compound O=C1N[C@H](c2cc(F)ccc2Cl)c2c(NC(=O)[C@@H]3CCC[C@H](C(F)(F)F)C3)cc(-c3ccc4ncnn4c3)cc21 [Compound I-2031] showed pIC50 equal to 5.00 to 6.00

---

Kindly supply the reported IC50 values for the records listed here.
Molecular target: H1047R PIK3CA enzyme (Homo sapiens, UniProt P42336, H1047R)
Test: ADP-Glo Biochemical PIK3CA Kinase Assay

Look over these answered cases.
Cn1cncc1-c1cc(NC(=O)c2cc(F)cc(C(F)(F)F)c2)c2c(c1)C(=O)NC2c1cc(F)ccc1Cl (stereo not shown)	≤ 0.1 µM
N#Cc1cc(NC(=O)N2C[C@@](O)(C(F)(F)F)c3ccccc32)c2c(c1)C(=O)N[C@H]2c1cc(F)ccc1Cl (single isomer, unassigned)	1 to 10 µM
O=C1N[C@@H](c2cc(F)ccc2Cl)c2c(NC(=O)[C@H]3C[C@@H](O)C[C@@H](C(F)(F)F)C3)cc(Br)cc21 (single isomer, unassigned)	10 to 100 µM
Cc1ccccc1C1NC(=O)c2cccc(NC(=O)c3cccc4c3CCCO4)c21 (stereo not shown)	10 to 100 µM
O=C1NC(c2cc(F)ccc2Cl)c2c(NC(=O)c3cc(F)cc4cc[nH]c34)cc(Br)cc21 (stereo not shown)	≤ 0.1 µM

Quick request: IC50 for each listed item, please.
1. Cn1cc(Oc2cc(NC(=O)c3cc(F)cc(C(F)(F)F)c3)c3c(c2)C(=O)NC3c2cc(F)ccc2Cl)cn1 (stereo not shown)
2. O=C(Nc1cc(Br)cc2c1C(c1cc(F)ccc1Cl)NC2=O)c1ccc(F)c(OC(F)F)c1 (stereo not shown)

Outgoing:
1. 1 to 10 µM
2. 1 to 10 µM

Quick request: IC50 for each listed item, please.
1. Cn1nccc1Nc1cc(NC(=O)c2cc(F)cc(C(F)(F)F)c2)c2c(c1)C(=O)N[C@H]2c1cc(F)ccc1Cl
2. O=C1N[C@H](c2ccccc2Cl)c2c(NC(=O)c3csc4ccccc34)ccnc21
3. O=C1N[C@@H](c2cc(F)ccc2Cl)c2c(N[C@H]3CCOc4ccccc43)cc(-c3cnn(C(F)F)c3)nc21 [Compound I-2082]
4. O=C(Nc1cc(OC[C@@H]2CCCN2)cc2c1C(c1cc(F)ccc1Cl)NC2=O)c1cc(F)cc(C(F)(F)F)c1 (single isomer, unassigned)
5. Cc1ccccc1C1(C)NC(=O)c2cccc(NC(=O)c3csc4ccccc34)c21 (stereo not shown)
6. O=C(Nc1cc(-c2ccnc(C(=O)O)c2)cc2c1C(c1cc(F)ccc1Cl)NC2=O)c1cc(F)cc(C(F)(F)F)c1 (stereo not shown)

Outgoing:
1. ≤ 0.1 µM
2. 0.1 to 0.5 µM
3. 10 to 100 µM
4. 0.1 to 0.5 µM
5. 10 to 100 µM
6. ≤ 0.1 µM

---

Biological target: H1047R PIK3CA enzyme (Homo sapiens, UniProt P42336, H1047R)
Test: ADP-Glo Biochemical PIK3CA Kinase Assay
pIC50: −log10 of the molar value.
Kindly supply the reported pIC50 values for the records listed here.

O=C1NC(c2cc(F)ccc2Cl)c2c(Nc3c[nH]c4ccccc34)cc(Br)cc21 (centres unmarked) [Compound I-1896]	4.00 to 5.00
C[C@@]1(O)CN(C(=O)Nc2cccc3c2[C@@H](c2cc(F)ccc2Cl)NC3=O)c2ccccc21 (single isomer, unassigned) [Compound I-2204]	5.00 to 6.00
O=C1N[C@H](c2cc(F)ccc2Cl)c2c(NC(=O)[C@H]3CCC[C@H](OC(F)(F)F)C3)cccc21 (single isomer, unassigned) [Compound I-2211]	4.00 to 5.00
O=C1N[C@H](c2cc(F)ccc2Cl)c2c(NC(=O)N3C[C@](O)(C(F)(F)F)c4ccccc43)cccc21 (single isomer, unassigned) [Compound I-2385]	5.00 to 6.00
Nc1nnc2ccc(-c3cc(NC(=O)c4cc(F)cc(C(F)(F)F)c4)c4c(c3)C(=O)N[C@H]4c3cc(F)ccc3Cl)cn12 [Compound I-1449]	≥ 7.00

Quick request: pIC50 for each listed item, please.
1. O=C1NC(c2cc(F)ccc2Cl)c2c1cccc2-c1nc2c(C(F)(F)F)cc(F)cc2[nH]1 (centres unmarked) [Compound I-842]
2. O=C1NC(c2cc(F)ccc2Cl)c2c(NC(=O)N3CC4(CC4)c4cc(F)ccc43)cc(Br)cc21 (centres unmarked) [Compound I-1512]
3. Cc1ccccc1[C@H]1NC(=O)c2cc(N)cc(NC(=O)c3cc(F)cc(C(F)(F)F)c3)c21 [Compound I-65]
4. O=C(Nc1cccc2c1C(c1cc(F)ccc1Cl)NC2=O)c1cc(F)ccc1NC1CCC1 (centres unmarked) [Compound I-872]
5. O=C(Nc1cc(-c2n[nH]c3ccncc23)cc2c1C(c1cc(F)ccc1Cl)NC2=O)c1cc(F)cc(C(F)(F)F)c1 (centres unmarked) [Compound I-938]
6. O=C(Nc1cc(-c2ccc3c(c2)OCCCO3)cc2c1C(c1cc(F)ccc1Cl)NC2=O)c1cc(F)cc(C(F)(F)F)c1 (centres unmarked) [Compound I-851]
7. O=C(Nc1cc(-c2ccc3ncnn3n2)cc2c1C(c1cc(F)ccc1Cl)NC2=O)c1cc(F)cc(C(F)(F)F)c1 (centres unmarked) [Compound I-1458]

Outgoing:
["6.30 to 7.00", "6.30 to 7.00", "5.00 to 6.00", "5.00 to 6.00", "6.30 to 7.00", "≥ 7.00", "≥ 7.00"]

Quick request: pIC50 for each listed item, please.
1. O=C(Nc1cccc2c1C(c1cccc(Br)c1)NC2=O)c1cc(F)cc(C(F)(F)F)c1 (centres unmarked) [Compound I-663]
2. Cn1ncnc1COc1cc(NC(=O)c2cc(F)cc(C(F)(F)F)c2)c2c(c1)C(=O)NC2c1cc(F)ccc1Cl (centres unmarked) [Compound I-1221]

Outgoing:
1. 4.00 to 5.00
2. ≥ 7.00
